Each recorded value in this set is attributed to paper PMC12820563.

// binding signal lookup, one value per entry
Target: MBP-FoxP3dN (Mus musculus, UniProt Q99JB6 188-423)
Sequence: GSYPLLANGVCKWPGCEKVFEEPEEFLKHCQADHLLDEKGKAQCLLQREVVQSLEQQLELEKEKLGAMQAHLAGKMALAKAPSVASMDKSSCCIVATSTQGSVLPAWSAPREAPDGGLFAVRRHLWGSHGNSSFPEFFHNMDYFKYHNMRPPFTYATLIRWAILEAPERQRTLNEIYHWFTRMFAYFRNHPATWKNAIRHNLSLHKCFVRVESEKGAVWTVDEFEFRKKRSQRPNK
Assay: PD-seq (MBP pull-down with sequencing); 20 mM Tris-HCl pH 7.5, 100 mM NaCl, 1.5 mM MgCl2, 0.4 uM protein, 0.1 uM dsDNA library, 30 min, room temperature, amylose pull-down; high values mean tight binding
Details: protein: recombinant; tags: His6-MBP; chain copies: 2; dsDNA, one strand shown
The full ranking holds about 16,000 sequences; the median of “rpm ratio (pull-down/input)” is about 0.5, and the highest 2% start at about 5.5. Many of the other results were omitted from the sample, so the highest values are more common in it than they were.

>  <QUERY_SEQUENCE>
GATGATTGTTCTCCCAGCTGATGAATTGTTCCATTCGAGTAAACAAATTTTCCTAATCTTTCTGTTCAAGCGCCATCTAC

>  <MEASURED_ON>
MBP-FoxP3dN (Mus musculus, UniProt Q99JB6 188-423)

>  <binding signal>
0.579 RPM ratio (pull-down/input)

$$$$
>  <QUERY_SEQUENCE>
GATGATTGTTCTCCCAGCTGATGAATTCTTAAGTTCGAGTAAACAAATTTTCCTAATCTTTCTGTTCAAGCGCCATCTAC

>  <MEASURED_ON>
MBP-FoxP3dN (Mus musculus, UniProt Q99JB6 188-423)

>  <binding signal>
0.237 RPM ratio (pull-down/input)

$$$$
>  <QUERY_SEQUENCE>
GATGATTGTTCTCCCAGCTGATGAATTAAAGCTGTCGAGTAAACAAATTTTCCTAATCTTTCTGTTCAAGCGCCATCTAC

>  <MEASURED_ON>
MBP-FoxP3dN (Mus musculus, UniProt Q99JB6 188-423)

>  <binding signal>
0.47 RPM ratio (pull-down/input)

$$$$
>  <QUERY_SEQUENCE>
GATGATTGTTCTCCCAGCTGATGAATTTGTTTTTTCGAGTAAACAAATTTTCCTAATCTTTCTGTTCAAGCGCCATCTAC

>  <MEASURED_ON>
MBP-FoxP3dN (Mus musculus, UniProt Q99JB6 188-423)

>  <binding signal>
6.93 RPM ratio (pull-down/input)

$$$$
